For each of the compounds below, state its hERG current change (%, negative = inhibition) at 1uM.
# Target Or System: human ether-à-go-go-related gene (hERG) potassium channel (human, UniProt Q12809)
# Sequence (Q12809 whole entry, looked up): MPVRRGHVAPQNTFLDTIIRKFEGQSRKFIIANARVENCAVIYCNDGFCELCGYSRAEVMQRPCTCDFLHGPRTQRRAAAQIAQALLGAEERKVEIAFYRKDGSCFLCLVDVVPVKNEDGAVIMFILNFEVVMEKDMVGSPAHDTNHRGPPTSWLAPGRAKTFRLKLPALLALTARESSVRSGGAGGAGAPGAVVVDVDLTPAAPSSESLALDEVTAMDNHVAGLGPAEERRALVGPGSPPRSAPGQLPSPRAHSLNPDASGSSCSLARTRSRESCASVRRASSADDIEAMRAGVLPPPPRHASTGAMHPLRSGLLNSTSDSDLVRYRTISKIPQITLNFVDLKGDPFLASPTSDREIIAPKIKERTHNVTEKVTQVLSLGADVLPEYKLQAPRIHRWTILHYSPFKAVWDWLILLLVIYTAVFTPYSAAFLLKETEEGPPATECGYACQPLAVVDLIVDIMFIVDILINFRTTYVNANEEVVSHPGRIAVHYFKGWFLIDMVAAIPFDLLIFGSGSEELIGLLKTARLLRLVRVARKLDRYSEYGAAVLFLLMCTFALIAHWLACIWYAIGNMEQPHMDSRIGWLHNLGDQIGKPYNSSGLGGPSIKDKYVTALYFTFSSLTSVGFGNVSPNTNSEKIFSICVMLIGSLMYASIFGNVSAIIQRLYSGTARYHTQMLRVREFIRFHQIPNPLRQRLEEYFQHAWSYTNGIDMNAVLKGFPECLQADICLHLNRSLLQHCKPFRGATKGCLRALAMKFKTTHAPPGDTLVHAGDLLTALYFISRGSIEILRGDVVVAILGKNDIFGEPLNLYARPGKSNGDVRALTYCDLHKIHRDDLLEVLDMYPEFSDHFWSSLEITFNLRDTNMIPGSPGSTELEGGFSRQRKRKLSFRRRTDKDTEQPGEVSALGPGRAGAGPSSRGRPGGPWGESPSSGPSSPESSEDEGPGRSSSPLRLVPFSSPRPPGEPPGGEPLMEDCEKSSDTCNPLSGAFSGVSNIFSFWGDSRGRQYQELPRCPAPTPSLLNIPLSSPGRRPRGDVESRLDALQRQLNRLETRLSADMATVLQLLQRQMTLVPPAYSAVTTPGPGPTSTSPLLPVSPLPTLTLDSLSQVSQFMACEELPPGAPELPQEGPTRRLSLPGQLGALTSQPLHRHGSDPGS
# Test Summary: primary screen, population patch clamp on CHO cells stably expressing hERG; higher = less effect of the substance
Out of some 310,000 compounds screened, about 2,200 (0.71%) showed an effect of 50% or more. The effect is printed as a negative number. Only a selection was taken, and strong results are over-represented in it overall.
Answers are plain numbers, in %.

Below, 5 compounds whose answers are already recorded.
O=C1C2CCCN2C(=O)N1CCCCN1CCN(c2ccccc2)CC1 (stereo not shown) | 1.66
O=C1C2CCCCN2C(=O)N1CCCCN1CCN(c2ccc(F)cc2)CC1 (stereo not shown) | -7.05
CCn1nccc1C(=O)Nc1nc2ccccc2n1CCN1CCCCC1 | -11.2
COc1ccc(/C=N/NC(=O)c2cccnc2)cc1CN1CCN(c2ccc(F)cc2)CC1 | -0.578
O=C1CC2(CCN(C(=O)c3ccccc3[N+](=O)[O-])CC2)Oc2ccccc21 | -19

Count: 6. Required value per item: hERG current change (%, negative = inhibition) at 1uM.
1. O=C(CCCN1C(=O)C2CCCCN2C1=O)N1CCN(c2ccc([N+](=O)[O-])cc2)CC1 (stereo not shown)
2. COc1ccc(/C=N/NC(=O)c2ccccc2F)cc1CN1CCN(c2ccc(F)cc2)CC1
3. O=C1C2CCCN2C(=O)N1CCCN1CCN(c2ccc([N+](=O)[O-])cc2)CC1 (stereo not shown)
4. O=C1C2CCCN2C(=O)N1CCN1CCN(c2ccccc2)CC1 (stereo not shown)
5. O=C1CC2(CCN(C(=O)c3ccc(Br)cc3)CC2)Oc2ccccc21
6. COc1ccc(/C=N/NC(=O)c2ccoc2C)cc1CN1CCN(c2ccc(F)cc2)CC1

Output:
-78.5
-64.4
-63.3
-10.6
-30.8
-19.3

Hey, can you go through the list below and give me hERG current change (%, negative = inhibition) at 1uM for every item?
1. COc1ccc(/C=N/NC(=O)c2cccc(Br)c2)cc1CN1CCOCC1
2. O=C1CC2(CCN(C(=O)c3c(F)cccc3Cl)CC2)Oc2ccccc21
3. O=C1CC2(CCN(C(=O)c3cccc(Br)c3)CC2)Oc2ccccc21
4. CN(C)c1ccc(/C=N/NC(=O)C(O)(c2ccccc2)c2ccccc2)o1
5. COc1ccc(C(=O)N/N=C/c2ccc(OC)c(CN3CCN(c4ccc(F)cc4)CC3)c2)cc1
6. COc1cc(OC)c2ccc(=O)oc2c1C(CCN1CCCC1)c1ccc2c(c1)OCO2 (stereo not shown)

Output:
1. -38.5
2. -4.7
3. -56
4. -5.86
5. -83.5
6. -7.33
